assayRemarks: Acute toxicity (LD50) in mice, Litchfield-Wilcoxon method
particulars: mouse, in vivo, ip
experimentalReadout: LD50 (mg/kg)
API: value field is a number in mg/kg; no unit string.

So for Cl.c1ccc2c(c1)OCC(CNCCCOc1ccc3c(c1)OCO3)O2 (stereo not shown) , the logged LD50 turned out to be 165

====

Known LD50 of a selection of molecules
assayRemarks: Acute toxicity (LD50) in mice, Litchfield-Wilcoxon method
particulars: mouse, in vivo, po
API: value field is a number in mg/kg; no unit string.

So for Cl.OC(CNCC1COc2ccccc2O1)COc1ccc2c(c1)OCO2 (centres unmarked) , the logged LD50 turned out to be 515

Switching to the query record.
So for Cl.O=C(CNCC1COc2ccccc2O1)c1ccc2c(c1)OCO2 (centres unmarked) , the logged LD50 turned out to be 1350

Where these numbers come from: patent US4684739A
